Where these numbers come from: the Immune Epitope Database (IEDB)

- TARGET_UNDER_TEST: HLA-A*31:01
- ASSAY_DETAILS: IEDB peptide-MHC binding, purified MHC/competitive/radioactivity; filed as Kd, often an IC50 or EC50 that approximates it; bounds were set here for any values at or beyond the usual limits of such assays
- ASSAY_CONDITIONS: source organism: Vaccinia virus WR
pKd: −log10 of the molar value.
READOUT: pKd

Illustrative cases are given below, each with its answer.
[
  {
    "SEQUENCE_CONTENT": "TILDDNLYK",
    "TARGET_UNDER_TEST": "HLA-A*31:01",
    "pKd": "≤ 4.30"
  },
  {
    "SEQUENCE_CONTENT": "SFSNTIQSY",
    "TARGET_UNDER_TEST": "HLA-A*31:01",
    "pKd": "≤ 4.11"
  },
  {
    "SEQUENCE_CONTENT": "DAKNDDWKK",
    "TARGET_UNDER_TEST": "HLA-A*31:01",
    "pKd": "≤ 4.44"
  },
  {
    "SEQUENCE_CONTENT": "TLDTMDDMKK",
    "TARGET_UNDER_TEST": "HLA-A*31:01",
    "pKd": "≤ 4.52"
  },
  {
    "SEQUENCE_CONTENT": "PVETLFGSY",
    "TARGET_UNDER_TEST": "HLA-A*31:01",
    "pKd": "≤ 4.21"
  },
  {
    "SEQUENCE_CONTENT": "PLFDFVNEKY",
    "TARGET_UNDER_TEST": "HLA-A*31:01",
    "pKd": "≤ 4.57"
  },
  {
    "SEQUENCE_CONTENT": "EVGSIRCVKY",
    "TARGET_UNDER_TEST": "HLA-A*31:01",
    "pKd": "≤ 4.33"
  }
]

I would be grateful if you could share the reported pKd for VLNRHAITMY .
≤ 4.15
